Taken from PubChem BioAssay (NCI).

System: OVCAR-8 ovarian
assay.protocol: NCI-60 one-dose screen, 48 h
details: 10 µM unless noted
About 83,000 compounds went through this panel and 20% of them were active in at least one assay; those are over-represented in the sample as a whole. Calls of active or inactive are those of the source. The calls were made as follows: active = growth percent below 10; inactive = the rest.
Outcome codes: active, inactive

compound=C/C(=C(/c1ccc(O)cc1)c1ccc(Cl)cc1)c1ccccc1 assigned_label=active
compound="Cc1cc2c(cc1C)NC1=C(N2)OC(c2c3ccccc3cc3ccccc23)C1=O (stereo not given)" assigned_label=active
compound=COc1ccc(-c2cc(-c3ccc(N(C)C)cc3)nc(NC(=O)c3ccncc3)n2)cc1 assigned_label=inactive
compound=Cc1sc2nc3[nH]/c(=C\c4ccc(Cl)cc4)c(=O)n3c(=O)c2c1C assigned_label=inactive
compound=O=S(=O)(Nc1ccc(F)c(Cl)c1)c1ccc(-c2cnc(C3CC3)o2)cc1 assigned_label=inactive

---

Test system: OVCAR-4 ovarian
assay.protocol: NCI-60 one-dose screen, 48 h (100 = growth as untreated, 0 = no growth, -100 = all killed)
details: 10 µM unless noted
About 83,000 compounds went through this panel and 20% of them were active in at least one assay; those are over-represented in the sample as a whole.
Response key: Yes means growth >= 80%; No means growth < 80%.

item_smiles=CCOC(=O)c1c2c(n3ccc(NC(=O)CCN(CC)CC)cc13)C(=O)c1ncccc1C2=O assigned_label=No
item_smiles=Cc1ccc(-c2nc(/C=N/Nc3cc(C)nc4ccc(Br)cc34)c(C)o2)cc1 assigned_label=No
item_smiles=Cn1cc(-c2ccc(-c3cn(C)c4ncccc34)[nH]2)c2cccnc21 assigned_label=No
item_smiles=Nc1cc2ccncc2c2ccccc12 assigned_label=Yes
item_smiles=O=C(CO[N+](=O)[O-])Nc1ccc(C(=O)/C=C/c2ccc3c(c2)OCO3)cc1 assigned_label=Yes
item_smiles=CCN(CC)CCC(=O)c1ccc(OC)c2ccccc12 assigned_label=Yes

---

growth values by entry
Test system: OVCAR-8 ovarian
assay.protocol: NCI-60 one-dose screen, 48 h (100 = growth as untreated, 0 = no growth, -100 = all killed)
details: 10 µM unless noted
This is part of a sample that, as a whole, favours compounds with a hit. Of some 83,000 tested, about 20% had one in any assay.
value.kind: growth (%)

item_smiles=COCCCN=C(N)c1ccc(NC(=O)c2ccc(C(=O)Nc3ccc(C(N)=NCCCOC)cc3)cc2)cc1 unit_of_measurement=% recorded_number=106
item_smiles=CCC(=O)OCc1cccc(OC)c1 unit_of_measurement=% recorded_number=98.2
item_smiles=C[C@H](CCC(=O)O)[C@H]1CC[C@H]2[C@@H]3CC[C@@H]4/C(=C\c5ccco5)C(=O)/C(=C\c5ccco5)C[C@]4(C)[C@H]3CC[C@]12C unit_of_measurement=% recorded_number=70.6
item_smiles=COc1ccc(/C=c2/c(=O)[nH]c3nc4sc(C)c(C)c4c(=O)n23)cc1 unit_of_measurement=% recorded_number=77.8
item_smiles=CCN(CC)CCC(=O)Nc1ccc(Cn2nnc3c2C(=O)c2nnn(Cc4ccc(NC(=O)CCN(CC)CC)cc4)c2C3=O)cc1 unit_of_measurement=% recorded_number=-35.6

---

System: BT-549 breast
assay.protocol: NCI-60 one-dose screen, 48 h
details: 10 µM unless noted
Compounds without any hit were thinned out: in the full panel of roughly 83,000, 20% have a hit. Calls of active or inactive are those of the source. Rule for the calls: active = growth percent below 10; inactive = the rest.
Outcomes: active, inactive

compound="C=C1CC[C@@H]2[C@](C)(COC(C)=O)[C@H](OC(C)=O)CC[C@@]2(C)[C@@H]1CC(Nc1ccc(S(=O)(=O)Nc2ccc(Cl)nn2)cc1)C1=CCOC1=O (stereo partly specified)" assigned_label=active
compound=c1ccc2c(Nc3cccc4ccccc34)cccc2c1 assigned_label=inactive
compound=COc1cc(C#N)cc(OC)c1OCCN(CCOc1c(OC)cc(C#N)cc1OC)S(=O)(=O)c1ccc(C)cc1 assigned_label=inactive
compound="Cc1nc2sc(C(=O)Nc3cccc4c3OCCO4)c(N)c2cc1C(C)O (stereo unspecified)" assigned_label=inactive
compound=COc1cc(NCCCCN=C(N)N)c2ncccc2c1 assigned_label=inactive
compound="COc1ccc(C2c3ccc4ccccc4c3Oc3ncnc(N)c32)cc1 (stereo unspecified)" assigned_label=inactive

---

Test system: OVCAR-8 ovarian
assay.protocol: NCI-60 one-dose screen, 48 h
details: 10 µM unless noted
Protocol: Growth inhibition of the OVCAR-8 human tumor cell line is measured as a screen for anti-cancer activity. Cells are grown in 96 well plates and exposed to the test compound for 48 hours. Compounds are tested at a single concentration, which is 10^-5 M for most compounds. The reported endpoint is percent growth (GI% or GIPRCNT), where numbers from 0 - 100% represent growth inhibition, and numbers from -100% - 0 represent cell death. For example, a value of 40 represents 60% growth inhibition. […]
Compounds without any hit were thinned out: in the full panel of roughly 83,000, 20% have a hit. Active and inactive are the calls of the source. Rule for the calls: active = growth percent below 10; inactive = the rest.
Outcome codes: true (active), false (inactive)

compound=Cc1cc(Nc2nc(N3CCN(C)CC3)nc3ccccc23)n[nH]1 assigned_label=false
compound=Cc1ccc(NC(=O)c2sc3nc4c(cc3c2N)C(=O)CCC4)cc1C assigned_label=false
compound=COc1cc(C(=O)/C=C/c2c(C)n([O-])c3ccc(C)cc3[n+]2=O)cc(OC)c1OC assigned_label=true
compound="COc1c(C2CC(=O)Nc3c2cnn3Cc2ccco2)cc2c(c1OC)OCO2 (configuration not stated)" assigned_label=false
compound=CSc1ccc(N=C=C(c2ccccc2)c2ccccc2)cc1 assigned_label=false
compound="CN1CCCCC1CCN1c2ccccc2Sc2ccc(Br)cc21 (configuration not stated)" assigned_label=false
compound=Cc1cccc(NC(=O)c2sc3nc4c(cc3c2N)C(=O)CCC4)c1 assigned_label=false
compound=O=C1C(Cl)=C(Cl)C(=O)c2c1nc1n2CCCC1 assigned_label=false
compound=C[C@@H]1CCC2=C(CCC[C@]2(C)C(=O)O)[C@@]1(C)CCc1ccoc1 assigned_label=false
compound=O=C(O)c1cccnc1Br assigned_label=false
compound="Cc1ccc(C2CC3c4ccccc4C2C2CCCCN32)cc1 (configuration not stated)" assigned_label=false
compound=Cn1c2c(Cl)c(Cl)ccc2c2ccn3c(=O)c4ccccc4nc3c21 assigned_label=false
compound=Cc1ccc(Nc2nc(N)nc(Nc3ccc4ccccc4c3)n2)cc1 assigned_label=false
compound=O=C(O)c1cn(C2CC2)c2cc(N3CCN(Cc4nc5c(cnn5-c5ccc([N+](=O)[O-])cc5)c(=O)[nH]4)CC3)c(F)cc2c1=O assigned_label=false
compound=CC[C@]12C=CCN3CC[C@@]4(c5ccc(OC)cc5N(C)[C@H]4[C@@](O)(C(=O)OC)[C@@H]1OC(=O)CCC(=O)N[C@@H](Cc1c[nH]c4ccccc14)C(=O)OC)[C@@H]32 assigned_label=false
compound=c1ccc(CSc2ncnc3nc[nH]c23)nc1 assigned_label=false
compound=CC[C@H](CO)Nc1nc(NCc2ccccc2)n2ncc(C(C)C)c2n1 assigned_label=false
compound=Nc1c(C(=O)Nc2cccc3c2OCCO3)sc2nc3c(cc12)C(=O)CCC3 assigned_label=false
compound=Cc1ccc(/C=C2\Oc3cc(OCC(=O)c4ccc(Cl)cc4)ccc3C2=O)cc1 assigned_label=false
compound=COc1cc2c(cc1O)CCc1cc(O)cc(OC)c1-2 assigned_label=false
compound=Nc1c(C(=O)Nc2cccc3c2OCCO3)sc2nc3c(cc12)CN(Cc1ccccc1)CC3 assigned_label=false
compound=CNCc1cccc2c1OCCOCCOCCN(C)S(=O)(=O)c1ccc(cc1)-c1cnc(N)c(n1)C(=O)N2 assigned_label=false
compound=CCCCCC(=O)N(CCCC)CCCC assigned_label=false
compound=CCN1CCN(Cc2ccc(NC(=O)Nc3nc4ccc(Oc5ccnc(C(=O)NC)c5)cc4s3)cc2C(F)(F)F)CC1 assigned_label=true
compound=O=C1Nc2ccccc2/C1=C/C(=N/c1nnc(-c2ccc(Cl)cc2)s1)c1ccccc1 assigned_label=false
compound=C[C@@]1(N2C(=O)OC[C@@H]2c2ccccc2)C(=O)N([C@H](CC(=O)N2CCC(N3CCCCC3)CC2)C(=O)NCc2cccc(C(F)(F)F)c2)[C@@H]1/C=C/c1ccccc1 assigned_label=false
compound="O=[N+]([O-])c1cccc(C2CC(c3ccccc3)=Nc3ccccc3S2)c1 (configuration not stated)" assigned_label=false
compound="CC1CN(C(C)C)C(=S)N(c2ccccc2)C1=O (configuration not stated)" assigned_label=false
compound=OCCNCCNc1c2ccccc2nc2ccccc12 assigned_label=false
compound=CC/C=C\C[C@H](O)C/C=C1/C(=O)C=C[C@@H]1C/C=C\CCCC(=O)NC assigned_label=false
compound=CCN(CC)Cc1cc(Nc2c3ccc(Cl)cc3nc3c(C)cccc23)ccc1O assigned_label=true
compound=Cc1nc2nc(N)nc(N)c2nc1C assigned_label=false
compound=CCOC(=S)SCc1ccc(Cl)cc1 assigned_label=false
compound="COc1cc(C2C(C(=O)c3cccs3)=C(O)C(=O)N2CCN2CCOCC2)cc(OC)c1OC (configuration not stated)" assigned_label=false
compound=Cc1ccc2c(c1)O/C(=C\c1cccc(OCC(=O)c3ccccc3)c1)C2=O assigned_label=false
compound=CC(=O)C1=C(O)C=C2Oc3c(C(=O)/C=C/c4cc(C(F)(F)F)cc(C(F)(F)F)c4)c(O)c(C)c(O)c3[C@]2(C)C1=O assigned_label=true
compound=Cc1cc2cc3cc(C)c(N(C)C)cc3[n+](C)c2cc1N(C)C assigned_label=false
compound=COc1ccc(/C=C2\N=C3SC=C(N)N3C2=O)cc1 assigned_label=false
compound=O=C(/C=C\c1ccc2ccccc2n1)c1cc(Cl)ccc1O assigned_label=false
compound=COc1cc(NCCCCN=C(N)NC(N)=NC(C)C)c2ncccc2c1 assigned_label=false
compound=Cc1cc(OCc2ccc(C(F)(F)F)cc2)c2c(c1)C(=O)C=C(NCCN1CCCC1)C2=O assigned_label=false
compound=NCc1cn2cc(Cl)sc2n1 assigned_label=false
